TESTED_TARGET: NAD-dependent protein deacylase sirtuin-5, mitochondrial (Homo sapiens) (UniProt Q9NXA8)
Sequence (Q9NXA8 whole entry, looked up): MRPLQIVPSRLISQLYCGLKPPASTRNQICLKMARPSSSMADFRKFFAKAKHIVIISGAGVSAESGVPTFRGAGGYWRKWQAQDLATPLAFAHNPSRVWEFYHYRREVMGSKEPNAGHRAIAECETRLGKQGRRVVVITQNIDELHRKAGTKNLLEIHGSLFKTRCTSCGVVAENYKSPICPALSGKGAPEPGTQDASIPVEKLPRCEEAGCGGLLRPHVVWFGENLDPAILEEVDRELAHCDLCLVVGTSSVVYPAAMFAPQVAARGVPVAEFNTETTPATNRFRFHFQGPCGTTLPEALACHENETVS
TEST_PROTOCOL: blockers of sirtuin-5 deacylase activity – biochemical, fluorescence imaging, single point, set 5, primary screen (AID 652115)
TEST_CONTEXT: Purified SirT5, succinyl-peptide AMC, trypsin-coupled fluorescence; at 15 µM; stronger effect = higher value
Among all 330,000 compounds or so, about 3,800 (1.2%) were called active. The sample holds actives, similar compounds and a random draw of the others, so the mix is not that of the screen.
Please respond with reported inhibition for every item in the list.
Give the number; % is assumed, so skip it.

Exercise: Identify measured inhibition corresponding to `C[C@@H](O)C#Cc1cnc2c(c1)C(=O)N([C@@H](C)CO)C[C@H](C)[C@H](CN(C)C(=O)c1ccccc1F)O2`
Key: 2.03

Exercise: Identify measured inhibition corresponding to `O=C(C1CCCCC1)N1CC2(C1)[C@H](c1ccccc1)[C@H](CO)N2CC1CCCC1`
Key: 5.17

Exercise: Identify measured inhibition corresponding to `C(=N\Nc1ccc2ccccc2n1)/c1ccc2c(c1)OCO2`
Key: 15.4

Exercise: Identify measured inhibition corresponding to `CC(C)CC#Cc1cnc2c(c1)C(=O)N([C@@H](C)CO)C[C@@H](C)[C@@H](CN(C)S(=O)(=O)c1cccs1)O2`
Key: 3.74

Exercise: Identify measured inhibition corresponding to `O=C(Nc1ccncc1)c1ccc([N+](=O)[O-])cc1Cl`
Key: -1.67

Exercise: Identify measured inhibition corresponding to `O=C(Cc1ccncc1)N[C@H]1CC[C@H](CCn2cc(-c3ccccc3F)nn2)O[C@@H]1CO`
Key: 25.2

Exercise: Identify measured inhibition corresponding to `C=CCC[C@H](Cc1ccc(F)cc1)C(=O)OC[C@H](C)NC(=O)[C@H](CC=C)CC(=O)N(CCO)Cc1ccccc1`
Key: 16.9

Exercise: Identify measured inhibition corresponding to `CCN(c1ccccc1)S(=O)(=O)c1ccc(OCC(=O)N2CCCC2)cc1`
Key: -0.147

Exercise: Identify measured inhibition corresponding to `CCCC#Cc1ccc([C@@H]2[C@@H](CO)N3C(=O)CN(C(=O)Nc4cccc(F)c4)C[C@H]23)cc1`
Key: 6.12

Exercise: Identify measured inhibition corresponding to Cc1cccnc1C(NC(=O)C1CCN(Cc2ccc(Cl)c(Cl)c2)CC1)c1ccc(Cl)cc1 (stereo not drawn)
Key: 0.115

Exercise: Identify measured inhibition corresponding to `CCCNC(=O)Nc1ccc2c(c1)OC[C@H](C)N(C(=O)C1CCC1)C[C@H](C)[C@@H](OC)CN(C)C2=O`
Key: -2.08

Exercise: Identify measured inhibition corresponding to `C=CCC[C@@H](Cc1ccc(F)cc1)C(=O)OC[C@@H](C)NC(=O)[C@H](CC=C)CC(=O)N(CCO)Cc1ccccc1`
Key: -0.88

Exercise: Identify measured inhibition corresponding to `Cc1ccc(C(=O)NCC(=O)NC2CC2)cc1`
Key: -1.54

Exercise: Identify measured inhibition corresponding to O=C(NC(c1ccc(Cl)cc1)c1cnccn1)C1CCN(Cc2ccc(Cl)cc2)CC1 (stereo not drawn)
Key: 18.2

Exercise: Identify measured inhibition corresponding to `COCC(=O)Nc1ccc2c(c1)C(=O)N(C)[C@@H]1CC[C@@H](CC(=O)NCC(F)(F)F)O[C@H]1CO2`
Key: 0.833

Exercise: Identify measured inhibition corresponding to `O=C(Cc1ccncc1)N[C@@H]1CC[C@H](CCn2cc(-c3ccccc3F)nn2)O[C@H]1CO`
Key: 1.05

Exercise: Identify measured inhibition corresponding to `O=C(Cc1cccnc1)N[C@H]1CC[C@H](CCn2cc(-c3ccccc3F)nn2)O[C@H]1CO`
Key: -1.27

Exercise: Identify measured inhibition corresponding to `Cc1ccnc(NC(=O)c2ccc(Cl)c([N+](=O)[O-])c2)c1`
Key: -6.51

Exercise: Identify measured inhibition corresponding to `CN(CCO)c1ccc(/C=N/Nc2nncc3ccccc23)cc1`
Key: 25

Exercise: Identify measured inhibition corresponding to `COc1ccccc1CN1[C@H](CO)[C@H](c2ccccc2)C12CN(C(=O)c1ccccn1)C2`
Key: -0.913

Exercise: Identify measured inhibition corresponding to `COc1ccc(S(=O)(=O)NCC(=O)NCc2cc(=O)n(C)c(=O)n2C)cc1F`
Key: -2

Exercise: Identify measured inhibition corresponding to `COc1ccc(NC(=O)N[C@H]2CC[C@H](CCn3cc(-c4ccccc4F)nn3)O[C@H]2CO)cc1`
Key: -0.072

Exercise: Identify measured inhibition corresponding to `O=C(N[C@@H]1CC[C@@H](CC(=O)N2CCc3ccccc3C2)O[C@H]1CO)C1CC1`
Key: 3.34

Exercise: Identify measured inhibition corresponding to `O=C(Nc1ccncc1)c1ccc(Cl)c([N+](=O)[O-])c1`
Key: 31.2

Exercise: Identify measured inhibition corresponding to `CN(C(=O)CSc1nncc2ccccc12)C1CCCCC1`
Key: 1.3

Exercise: Identify measured inhibition corresponding to `Cc1cc(=O)[nH]c(N/N=C/c2ccc3c(c2)OCCO3)n1`
Key: 2.57

Exercise: Identify measured inhibition corresponding to `COc1cccc(S(=O)(=O)N[C@H]2CC[C@@H](CCN)O[C@H]2CO)c1`
Key: 0.762

Exercise: Identify measured inhibition corresponding to `CCCN1[C@@H]2c3ccc(C4=CCCC4)c(=O)n3C[C@@H]2[C@@H](CO)[C@@H]1C(=O)NCc1ccccn1`
Key: -0.978

Exercise: Identify measured inhibition corresponding to `CN(C)CC(=O)Nc1ccc2c(c1)[C@H]1C[C@H](CC(=O)NCc3ccccn3)O[C@@H](CO)[C@H]1O2`
Key: -6.14

Exercise: Identify measured inhibition corresponding to `O=C(C[C@H]1C[C@@H]2c3cc(NC(=O)CC4CC4)ccc3O[C@@H]2[C@H](CO)O1)NCc1ccccn1`
Key: -3.34

Exercise: Identify measured inhibition corresponding to `COCCCNC(=S)N(Cc1ccccc1)Cc1ccc(F)cc1`
Key: 15.1

Exercise: Identify measured inhibition corresponding to `COCCCNC(=S)NNC(=O)C(O)(c1ccccc1)c1ccccc1`
Key: -5.23

Exercise: Identify measured inhibition corresponding to `Cc1ccc(NC(=O)c2csc3c2CCCC3)cc1`
Key: -2.6

Exercise: Identify measured inhibition corresponding to `O=C(N/N=C/c1ccco1)c1csc2c1CCCC2`
Key: 15.8

Exercise: Identify measured inhibition corresponding to `C=CCC[C@H](Cc1ccc(F)cc1)C(=O)OC[C@@H](NC(=O)[C@@H](CC=C)CC(=O)N[C@H](CO)Cc1ccccc1)C(C)(C)C`
Key: 0.931

Exercise: Identify measured inhibition corresponding to `CN1c2ccc(C3=CCCCC3)cc2[C@@H]2[C@@H](CCN2C(=O)Nc2cc(F)ccc2F)[C@@H]1CO`
Key: 1.41

Exercise: Identify measured inhibition corresponding to `CN(c1ccccc1)S(=O)(=O)c1ccc2[nH]c(=O)[nH]c2c1`
Key: -0.22

Exercise: Identify measured inhibition corresponding to `COc1cccc(S(=O)(=O)N2CCC3(CC2)CN[C@H](CO)c2c3c3ccc(OC)cc3n2C)c1`
Key: 1.64
